# IC50 listing for each entry below
- Species on record: Cavia porcellus
- run description: Partial agonist activity expressed as inhibition of contraction of guinea pig ileal longitudinal muscle myenteric plexus (GPI) at 1 uM conc.
- Type: functional, organism-based
- protocol conditions: Muscle tissue
Answer with a number only, understood to be in nM.

// worked examples, IC50 included
compound | value
Oc1ccc2c3c1OC1c4[nH]c5c(Oc6ccccc6)cccc5c4C[C@@]4(O)[C@@H](C2)N(CC2CC2)CC[C@]314 (some centres undefined) | 450
Oc1ccc2c3c1OC1c4[nH]c5c(OCc6ccccc6)cccc5c4C[C@@]4(O)[C@@H](C2)N(CC2CC2)CC[C@]314 (some centres undefined) | 1700
Oc1ccc2c3c1OC1c4[nH]c5cc(Oc6ccccc6)ccc5c4C[C@@]4(O)[C@@H](C2)N(CC2CC2)CC[C@]314 (some centres undefined) | 2300

Consider now this further compound.
Ask | I have this compound here, Oc1ccc2c3c1OC1c4[nH]c5ccc(/C=C/c6ccccn6)cc5c4C[C@@]4(O)[C@@H](C2)N(CC2CC2)CC[C@]314 (some centres undefined) , and I need its recorded IC50.
Reply | 2600

----------
- experimental target: Opioid receptors; mu & delta (Rattus norvegicus) (UniProt P33533+P33535)
- Sequence (P33533 whole entry, looked up): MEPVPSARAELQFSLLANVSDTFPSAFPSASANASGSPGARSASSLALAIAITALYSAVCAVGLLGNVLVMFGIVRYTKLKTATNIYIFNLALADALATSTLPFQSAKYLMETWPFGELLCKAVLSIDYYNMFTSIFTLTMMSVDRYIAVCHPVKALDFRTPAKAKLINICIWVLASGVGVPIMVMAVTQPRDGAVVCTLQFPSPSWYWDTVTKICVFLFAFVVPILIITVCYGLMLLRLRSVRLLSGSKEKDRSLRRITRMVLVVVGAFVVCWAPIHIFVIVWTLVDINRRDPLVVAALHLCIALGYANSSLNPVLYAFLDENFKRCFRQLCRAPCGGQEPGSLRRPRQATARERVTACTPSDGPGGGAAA
- Sequence (P33535 whole entry, looked up): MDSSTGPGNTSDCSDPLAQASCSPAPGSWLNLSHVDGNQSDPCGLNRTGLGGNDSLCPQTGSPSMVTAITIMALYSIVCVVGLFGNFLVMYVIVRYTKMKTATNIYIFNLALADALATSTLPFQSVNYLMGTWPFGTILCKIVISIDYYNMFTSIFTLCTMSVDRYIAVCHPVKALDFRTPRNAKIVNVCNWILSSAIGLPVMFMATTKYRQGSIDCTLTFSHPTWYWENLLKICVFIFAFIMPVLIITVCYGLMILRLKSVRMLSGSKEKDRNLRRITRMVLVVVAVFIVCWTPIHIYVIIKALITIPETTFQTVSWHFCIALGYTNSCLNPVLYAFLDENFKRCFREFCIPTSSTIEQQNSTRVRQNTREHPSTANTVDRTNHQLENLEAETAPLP
- run description: Relative affinity for mu and delta receptors in rat brain membranes
- Assay type: cell membranes
measured property: Selectivity ratio

Consider the reported Selectivity ratio for these molecules:
molecule | value
Oc1ccc2c3c1OC1c4[nH]c5cccc(OCc6ccccc6)c5c4C[C@@]4(O)[C@@H](C2)N(CC2CC2)CC[C@]314 (some centres undefined) | 24
Oc1ccc2c3c1OC1c4[nH]c5c(Oc6ccccc6)cccc5c4C[C@@]4(O)[C@@H](C2)N(CC2CC2)CC[C@]314 (some centres undefined) | 48
Oc1ccc2c3c1OC1c4[nH]c5cccc(-c6ccccc6)c5c4C[C@@]4(O)[C@@H](C2)N(CC2CC2)CC[C@]314 (some centres undefined) | 29

Ask | What value of Selectivity ratio on Opioid receptors; mu & delta (Rattus norvegicus) (UniProt P33533+P33535) does Oc1ccc2c3c1OC1c4[nH]c5c(-c6ccccc6)cccc5c4C[C@@]4(O)[C@@H](C2)N(CC2CC2)CC[C@]314 (some centres undefined) have?
Reply | 59

----------
- Organism: Cavia porcellus
- run description: Binding affinity of compound was measured on electrically stimulated guinea pig ileal longitudinal muscle myenteric plexus (GPI) preparation using PL017 as standard antagonist
- Format: functional
- protocol conditions: Muscle tissue
Consider the following compounds and their measured Ke readings.
Hi! Could you send only the number? It should be in nM, unit omitted.

Some solved cases for reference:
compound | Ke, nM
Oc1ccc2c3c1OC1c4[nH]c5ccc(Oc6ccccc6)cc5c4C[C@@]4(O)[C@@H](C2)N(CC2CC2)CC[C@]314 (some centres not stated) | 770
Oc1ccc2c3c1OC1c4[nH]c5cccc(-c6ccccc6)c5c4C[C@@]4(O)[C@@H](C2)N(CC2CC2)CC[C@]314 (some centres not stated) | 710
Oc1ccc2c3c1OC1c4[nH]c5cccc(Oc6ccccc6)c5c4C[C@@]4(O)[C@@H](C2)N(CC2CC2)CC[C@]314 (some centres not stated) | 590
Oc1ccc2c3c1OC1c4[nH]c5ccc(-c6ccccc6)cc5c4C[C@@]4(O)[C@@H](C2)N(CC2CC2)CC[C@]314 (some centres not stated) | 110
Oc1ccc2c3c1OC1c4[nH]c5c(-c6ccccc6)cccc5c4C[C@@]4(O)[C@@H](C2)N(CC2CC2)CC[C@]314 (some centres not stated) | 310
Oc1ccc2c3c1O[C@H]1c4[nH]c5ccccc5c4C[C@@]4(O)[C@@H](C2)N(CC2CC2)CC[C@]314 | 43

Next item in the queue.
Ask | Given Oc1ccc2c3c1OC1c4[nH]c5ccc(OCc6ccccc6)cc5c4C[C@@]4(O)[C@@H](C2)N(CC2CC2)CC[C@]314 (some centres not stated) , state its recorded Ke.
Reply | 560

----------
- run description: Selectivity for mu receptor of guinea pig Ileum (GPI) and delta receptor of delta opioid receptor of mouse vas deferens (MVD) smooth muscle preparation
- Type: tissue-based
measured property: Selectivity ratio
Give only the figure.

Please review the entries below; each comes with its answer.
molecule | measured property | value
Oc1ccc2c3c1OC1c4[nH]c5c(-c6ccccc6)cccc5c4C[C@@]4(O)[C@@H](C2)N(CC2CC2)CC[C@]314 (stereo partly specified) | Selectivity ratio | 172
Oc1ccc2c3c1OC1c4[nH]c5ccc(Oc6ccccc6)cc5c4C[C@@]4(O)[C@@H](C2)N(CC2CC2)CC[C@]314 (stereo partly specified) | Selectivity ratio | 70
Oc1ccc2c3c1OC1c4[nH]c5ccc(OCc6ccccc6)cc5c4C[C@@]4(O)[C@@H](C2)N(CC2CC2)CC[C@]314 (stereo partly specified) | Selectivity ratio | 117
Oc1ccc2c3c1OC1c4[nH]c5cccc(-c6ccccc6)c5c4C[C@@]4(O)[C@@H](C2)N(CC2CC2)CC[C@]314 (stereo partly specified) | Selectivity ratio | 11
Oc1ccc2c3c1OC1c4[nH]c5ccc(-c6ccccc6)cc5c4C[C@@]4(O)[C@@H](C2)N(CC2CC2)CC[C@]314 (stereo partly specified) | Selectivity ratio | 12

Here is another molecule to look at.
Ask | Which Selectivity ratio is listed for Oc1ccc2c3c1OC1c4[nH]c5cccc(Oc6ccccc6)c5c4C[C@@]4(O)[C@@H](C2)N(CC2CC2)CC[C@]314 (stereo partly specified) ?
Reply | 35

----------
- experimental target: UniProtKB P33535
- Sequence (P33535 whole entry): as the sequence (P33535 whole entry, looked up) above
Rule for this label: criterion met means Ki is less than 0.2 µM; criterion not met means Ki is at least 0.2 µM.

compound | experimental target | label
Oc1ccc2c3c1OC1c4[nH]c5cccc(OCc6ccccc6)c5c4C[C@@]4(O)[C@@H](C2)N(CC2CC2)CC[C@]314 (stereo partly drawn) | UniProtKB P33535 | criterion not met

Ask | State whether 0.2 µM exceeds Ki recorded for Oc1ccc2c3c1OC1c4[nH]c5cc(Oc6ccccc6)ccc5c4C[C@@]4(O)[C@@H](C2)N(CC2CC2)CC[C@]314 (stereo partly drawn) .
Reply | criterion not met

Ask | Also Oc1ccc2c3c1OC1c4[nH]c5cc(OCc6ccccc6)ccc5c4C[C@@]4(O)[C@@H](C2)N(CC2CC2)CC[C@]314 (stereo partly drawn) ?
Reply | criterion not met

Ask | Another compound to look at: Oc1ccc2c3c1OC1c4[nH]c5ccc(-c6ccccc6)cc5c4C[C@@]4(O)[C@@H](C2)N(CC2CC2)CC[C@]314 (stereo partly drawn)
Reply | criterion met

----------
Below, each entry is listed with its recorded Ki.
- experimental target: Delta-type opioid receptor (Rattus norvegicus, UniProt P33533)
- Sequence (P33533 whole entry): as the sequence (P33533 whole entry, looked up) above
- run description: Displacement of [3H]DADLE from Opioid receptor delta 1 of rat brain membranes (DAMGO quenching mu receptor)
- Type: cell membranes, Membrane
Output should be the measured figure followed by the unit it is expressed in.

compound | Ki
Oc1ccc2c3c1OC1c4[nH]c5c(OCc6ccccc6)cccc5c4C[C@@]4(O)[C@@H](C2)N(CC2CC2)CC[C@]314 (some centres undefined) | 3.1 nM
Oc1ccc2c3c1OC1c4[nH]c5cccc(OCc6ccccc6)c5c4C[C@@]4(O)[C@@H](C2)N(CC2CC2)CC[C@]314 (some centres undefined) | 14.8 nM
Oc1ccc2c3c1OC1c4[nH]c5cccc(Oc6ccccc6)c5c4C[C@@]4(O)[C@@H](C2)N(CC2CC2)CC[C@]314 (some centres undefined) | 67.9 nM

The record that follows has no Ki shown yet.
Ask | // Ki lookup, key: Oc1ccc2c3c1OC1c4[nH]c5cccc(-c6ccccc6)c5c4C[C@@]4(O)[C@@H](C2)N(CC2CC2)CC[C@]314 (some centres undefined)
Reply | 52.4 nM

----------
- experimental target: UniProt:P41144
- Sequence (P41144 whole entry): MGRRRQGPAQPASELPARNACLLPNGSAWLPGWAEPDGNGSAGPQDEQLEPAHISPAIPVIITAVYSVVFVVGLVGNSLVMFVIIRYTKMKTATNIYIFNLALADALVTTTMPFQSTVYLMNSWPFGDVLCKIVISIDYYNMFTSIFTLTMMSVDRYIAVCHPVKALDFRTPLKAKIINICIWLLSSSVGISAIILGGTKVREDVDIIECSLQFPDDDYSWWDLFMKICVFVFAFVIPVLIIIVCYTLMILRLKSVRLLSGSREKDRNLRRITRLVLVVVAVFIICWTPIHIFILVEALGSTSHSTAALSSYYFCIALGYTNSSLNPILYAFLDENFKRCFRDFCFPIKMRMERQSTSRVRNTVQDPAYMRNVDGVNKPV
- run description: Displacement of [125I]OXY from Opioid receptor kappa 2b of guinea pig brain membranes (pretreated with BIT(mu) and FIT(delta) and in the presence of (-)U50,488)
Reported Ki values for a set of compounds
Record the value in nM, omitting the unit from your answer.

Use these answered entries as a reference point.
compound | measure unit | Ki
Oc1ccc2c3c1OC1c4[nH]c5cc(-c6ccccc6)ccc5c4C[C@@]4(O)[C@@H](C2)N(CC2CC2)CC[C@]314 (some centres undefined) | nM | 660
Oc1ccc2c3c1OC1c4[nH]c5cccc(-c6ccccc6)c5c4C[C@@]4(O)[C@@H](C2)N(CC2CC2)CC[C@]314 (some centres undefined) | nM | 435
Oc1ccc2c3c1OC1c4[nH]c5c(Oc6ccccc6)cccc5c4C[C@@]4(O)[C@@H](C2)N(CC2CC2)CC[C@]314 (some centres undefined) | nM | 56.8

Here's the next entry for you.
Ask | Give Ki (UniProt:P41144) of the following compound: Oc1ccc2c3c1OC1c4[nH]c5c(OCc6ccccc6)cccc5c4C[C@@]4(O)[C@@H](C2)N(CC2CC2)CC[C@]314 (some centres undefined)
Reply | 112

----------
Form field: Selectivity ratio (one value per entry).
- experimental target: Opioid receptors; mu & delta (Rattus norvegicus) (UniProt P33533+P33535)
- run description: Relative affinity for mu and delta receptors in rat brain membranes
- Assay type: cell membranes
Just the number.

compound | value
Oc1ccc2c3c1OC1c4[nH]c5cccc(Oc6ccccc6)c5c4C[C@@]4(O)[C@@H](C2)N(CC2CC2)CC[C@]314 (stereo not given in full) | 21
Oc1ccc2c3c1OC1c4[nH]c5ccc(Oc6ccccc6)cc5c4C[C@@]4(O)[C@@H](C2)N(CC2CC2)CC[C@]314 (stereo not given in full) | 16
Oc1ccc2c3c1OC1c4[nH]c5cc(Oc6ccccc6)ccc5c4C[C@@]4(O)[C@@H](C2)N(CC2CC2)CC[C@]314 (stereo not given in full) | 37

Ask | Return reported Selectivity ratio; argument: Oc1ccc2c3c1OC1c4[nH]c5ccc(-c6ccccc6)cc5c4C[C@@]4(O)[C@@H](C2)N(CC2CC2)CC[C@]314 (stereo not given in full)
Reply | 10

Ask | Now the same for Oc1ccc2c3c1OC1c4[nH]c5c(OCc6ccccc6)cccc5c4C[C@@]4(O)[C@@H](C2)N(CC2CC2)CC[C@]314 (stereo not given in full)
Reply | 51
